Cited source for all entries: patent US20250295799A1

The entries below are paired with their reported Bmax (MFI).
biological target: T1, human glypican-3 (GPC3) (human, UniProt P51654 25-554); test: flow cytometry on JHH-5 cells; antibody in mouse plasma, day 0
T1 construct: Endogenous on JHH-7, JHH-5, HepG2 and NCI-H446 tumour cells, or transiently expressed on CHO-S cells from a pTT5 plasmid; also called hGPC3; huGPC3
Unit MFI implied. Number only.

Field: example entries. Status: answers known.
INSERT INTO assay_data (binder, value) VALUES
  ('H18L6_LC_G34R mAb, v40206 (antibody, human IgG1, kappa, V domains shown, Full-size IgG1/kappa) VH: QVQLVQSGAEVKKPGSSVKVSCKASGYTFTDYEMHWVKQAPGHGLEWIGAIDPETGDTAYNQKFKGKATLTADTSTSTAYMELSSLRSEDTAVYYCTRYFSFAYWGQGTLVTVSS VL: EIVLTQSPATLSLSPGERATISCRSSQSLRHSNRNTYLQWYQQKPGQAPRLLIYKVSNRFSGVPARFSGSGSGTDFTLTISSLEPEDFAVYFCYQSKHVPYTFGGGTKVEIKR', 5450),
  ('H18L6_LC_G34D mAb, v40203 (antibody, human IgG1, kappa, V domains shown) VH: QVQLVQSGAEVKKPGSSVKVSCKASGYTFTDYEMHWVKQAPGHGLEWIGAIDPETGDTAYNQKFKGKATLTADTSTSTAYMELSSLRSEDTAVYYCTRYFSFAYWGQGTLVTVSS VL: EIVLTQSPATLSLSPGERATISCRSSQSLRHSNDNTYLQWYQQKPGQAPRLLIYKVSNRFSGVPARFSGSGSGTDFTLTISSLEPEDFAVYFCYQSKHVPYTFGGGTKVEIKR', 4660),
  ('H18L6_LC_G34A mAb, v40212 (antibody, human IgG1, kappa, V domains shown, M3-H18L6 chains with the stated light chain point mutation, IgG1/kappa) VH: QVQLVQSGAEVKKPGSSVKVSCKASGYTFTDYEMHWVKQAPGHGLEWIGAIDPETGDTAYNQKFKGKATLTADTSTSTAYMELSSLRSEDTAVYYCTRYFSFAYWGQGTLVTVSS VL: EIVLTQSPATLSLSPGERATISCRSSQSLRHSNANTYLQWYQQKPGQAPRLLIYKVSNRFSGVPARFSGSGSGTDFTLTISSLEPEDFAVYFCYQSKHVPYTFGGGTKVEIKR', 4930);

Please find the next binder below.
Return value of Bmax (MFI) for input H18L6_LC_G34E mAb, v40204 (antibody, human IgG1, kappa, V domains shown, M3-H18L6 chains with the stated light chain point mutation, IgG1/kappa) VH: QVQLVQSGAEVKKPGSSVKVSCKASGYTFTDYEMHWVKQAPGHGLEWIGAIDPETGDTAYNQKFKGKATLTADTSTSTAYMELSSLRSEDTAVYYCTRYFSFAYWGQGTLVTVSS VL: EIVLTQSPATLSLSPGERATISCRSSQSLRHSNENTYLQWYQQKPGQAPRLLIYKVSNRFSGVPARFSGSGSGTDFTLTISSLEPEDFAVYFCYQSKHVPYTFGGGTKVEIKR , no commentary.
4760
